Data provenance is patent US4201866A.

Experiment: Intravenous propranolol-o-hemi-succinate hydrochloride; plasma levels of unchanged ester and free propranolol (Example 5)
Type: in vivo, beagle dogs
Details: dog, plasma, iv, 26.7 mg, 1/2 hr; i.v. 26.7 mg; mean; read-out: Mean plasma level of unchanged propranolol-o-hemi-succinate HCl
Description: Four beagle dogs were administered propranolol-o-hemi-succinate hydrochloride either intravenously or orally. The dogs were divided into two groups of two, each group receiving each dosing regimen according to a crossover design. […] Blood samples were collected at regular intervals after dosing and plasma was analyzed for free propranolol and unchanged propranolol-o-hemi-succinate hydrochloride. Plasma was analyzed for propranolol-o-hemi-succinate hydrochloride by a TLC fluorometric procedure. […]
Counter-ions that a name gives are not always drawn.
metric name: concentration at 0.5 h (ng/mL)
Record the value in ng/mL, omitting the unit from your answer.

Form: compound = CC(C)NCC(COc1cccc2ccccc12)OC(=O)CCC(=O)O (stereo not shown) [propranolol-o-hemi-succinate HCl] ; concentration at 0.5 h = 781

---

assay: Intravenous propranolol-o-hemi-succinate hydrochloride; plasma levels of unchanged ester and free propranolol (Example 5); format: in vivo, beagle dogs; settings: dog, plasma, iv, 26.7 mg, 5 min; i.v. 26.7 mg; individual dogs; read-out: Plasma level of unchanged propranolol-o-hemi-succinate HCl
Counter-ions that a name gives are not always drawn.
metric name: concentration at 5 min (µg/mL)
Respond with the bare value in µg/mL.

concentration at 5 min for CC(C)NCC(COc1cccc2ccccc12)OC(=O)CCC(=O)O (stereo not shown) [propranolol-o-hemi-succinate HCl] is 2.2

---

assay: Oral propranolol-o-hemi-succinate hydrochloride; plasma levels of unchanged ester and free propranolol (Example 5); type: in vivo, beagle dogs; conditions: dog, plasma, po, 107 mg, 6 hrs, mean, * = estimate only, below level of reliable quantitation, read-out: Mean plasma level of unchanged propranolol-o-hemi-succinate HCl
Structures can show the parent of a compound that is named as a salt.
metric name: concentration at 6 h

The compound identified as CC(C)NCC(COc1cccc2ccccc12)OC(=O)CCC(=O)O (stereo not shown) [propranolol-o-hemi-succinate HCl] registered its concentration at 6 h at ~10 ng/mL

---

experiment: Intravenous administration of propranolol HCl and propranolol-o-hemi-succinate HCl; plasma levels of free propranolol (Example 3); type: in vivo, beagle dogs; conditions: dog, plasma, iv, 20 mg, 5 min after dosing; i.v., 20 mg propranolol HCl or equivalent; mean; read-out: Mean plasma level of free propranolol
Counter-ions that a name gives are not always drawn.
metric name: concentration at 5 min (ng/mL)
Note: unit ng/mL is implicit; provide only the numeric part.

Briefly, concentration at 5 min measured for CC(C)NCC(O)COc1cccc2ccccc12 (stereo not shown) [propranolol HCl] : 318

---

assay: Oral propranolol-o-hemi-succinate hydrochloride; plasma levels of unchanged ester and free propranolol (Example 5); format: in vivo, beagle dogs; settings: dog, plasma, po, 107 mg, 1/2 hr, mean, read-out: Mean plasma level of unchanged propranolol-o-hemi-succinate HCl
Where a name gives a salt, the structure may show the parent alone.
metric name: concentration at 0.5 h (ng/mL)
Write the answer as a number in ng/mL, unit excluded.

concentration at 0.5 h in this record for CC(C)NCC(COc1cccc2ccccc12)OC(=O)CCC(=O)O (stereo not shown) [propranolol-o-hemi-succinate HCl] : 1760

---

assay: Intravenous propranolol-o-hemi-succinate hydrochloride; plasma levels of unchanged ester and free propranolol (Example 5); assay type: in vivo, beagle dogs; conditions: dog, plasma, iv, 26.7 mg, 2 hrs; i.v. 26.7 mg; mean; read-out: Mean plasma level of unchanged propranolol-o-hemi-succinate HCl
Structures can show the parent of a compound that is named as a salt.
metric name: concentration at 2 h
The reply should consist of the numeric value with the unit placed after it.

// concentration at 2 h lookup, molecule = CC(C)NCC(COc1cccc2ccccc12)OC(=O)CCC(=O)O (stereo not shown) [propranolol-o-hemi-succinate HCl] , result: 82 ng/mL

---

assay: Oral administration of propranolol-o-hemi-succinate HCl and propranolol HCl; plasma levels of free propranolol (Example 2); assay type: in vivo, beagle dogs; details: dog, plasma, po, 80 mg, 80 mg propranolol HCl or equivalent, read-out: average AUC (0-6 hr.) of free propranolol, overall study
Structures can show the parent of a compound that is named as a salt.
metric name: AUC at 6 h (ng·h/mL)
Only the number, expressed in ng·h/mL, is required.

According to the records, this molecule CC(C)NCC(O)COc1cccc2ccccc12 (stereo not shown) [propranolol HCl] displays AUC at 6 h of 132

---

experiment: Oral propranolol-o-hemi-succinate hydrochloride; plasma levels of unchanged ester and free propranolol (Example 5); assay type: in vivo, beagle dogs; conditions: dog, plasma, po, 107 mg, 1 hr, mean, read-out: Mean plasma level of unchanged propranolol-o-hemi-succinate HCl
Where a name gives a salt, the structure may show the parent alone.
metric name: concentration at 1 h
Phrase the answer as number then unit, nothing more needed.

Kindly note the recorded concentration at 1 h for CC(C)NCC(COc1cccc2ccccc12)OC(=O)CCC(=O)O (stereo not shown) [propranolol-o-hemi-succinate HCl] , which is 2350 ng/mL

---

assay: Intravenous administration of propranolol HCl and propranolol-o-hemi-succinate HCl; plasma levels of free propranolol (Example 3); type: in vivo, beagle dogs; details: dog, plasma, iv, 20 mg, 6 hr after dosing; i.v., 20 mg propranolol HCl or equivalent; individual dogs; read-out: Plasma level of free propranolol
Structures can show the parent of a compound that is named as a salt.
metric name: concentration at 6 h

Lab book: concentration at 6 h of CC(C)NCC(O)COc1cccc2ccccc12 (stereo not shown) [propranolol HCl] noted as 53 ng/mL

---

experiment: Intravenous administration of propranolol HCl and propranolol-o-hemi-succinate HCl; plasma levels of free propranolol (Example 3); format: in vivo, beagle dogs; settings: dog, plasma, iv, 20 mg, 2 hr after dosing; i.v., 20 mg propranolol HCl or equivalent; individual dogs; read-out: Plasma level of free propranolol
Structures can show the parent of a compound that is named as a salt.
metric name: concentration at 2 h
Quick note: number first, unit second.

Short answer for CC(C)NCC(O)COc1cccc2ccccc12 (stereo not shown) [propranolol HCl] : concentration at 2 h was 191 ng/mL
